assay: probe aShh binding to arrayed compounds – biochemical, biotinylated probe, 635/667 nm fluorescence, primary screen (AID 1114); conditions: small-molecule microarray, higher = more signal;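 further: probe is biotin-labelled aShh protein from a stem cell growth factor screen; measures binding of labelled protein to compounds printed on the slide; score merges feature fluorescence at 667 nm with signal-to-noise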
assay.endpoint: composite z-score
Numbers only.

Recorded composite z-score, per entry:
[
  {
    "compound": "COc1cc(C(O)C2C=CC3C(=O)N(C)C(=O)C3N2NC(=O)OC(C)(C)C)cc(OC)c1OC (stereo not drawn)",
    "assay.endpoint": "composite z-score",
    "value.measured": 0.848
  },
  {
    "compound": "CC(C)=CCCC(C)=CC(O)C1C=CC2C(=O)N(c3ccccc3)C(=O)C2N1Nc1ccc([N+](=O)[O-])cc1 (stereo not drawn)",
    "assay.endpoint": "composite z-score",
    "value.measured": 0.0952
  },
  {
    "compound": "CN1C(=O)C2C=CC(C(O)COCc3ccccc3)N(Nc3ccccc3)C2C1=O (stereo not drawn)",
    "assay.endpoint": "composite z-score",
    "value.measured": -0.0793
  },
  {
    "compound": "COC(=O)[C@@]1(Cc2ccccc2)[C@H]2c3cc(C(=O)N(C)C)n(Cc4ccccn4)c3C[C@H]2CN1C(=O)c1ccccc1",
    "assay.endpoint": "composite z-score",
    "value.measured": -0.0849
  },
  {
    "compound": "CC(C)CN1C(=O)[C@@]2(Cc3ccccc31)c1ccccc1C(=O)N(Cc1ccccc1)[C@H]2c1ccc(CO)cc1",
    "assay.endpoint": "composite z-score",
    "value.measured": -0.206
  }
]

Report composite z-score for every entry below.
1. C#CCOC(=O)N[C@H](C=CCCCC)c1ccccc1
2. CC1CC/C=C\[C@H]2OC34C=CCN(c5ccc(Cl)cc5)C(=O)[C@H]3N(C(CO)C(C)C)C(=O)[C@]4(C)C2C(=O)O1 (stereo partly drawn)

Result:
[0.413, -0.154]

Q: Record request: composite z-score value, item CCCCC(O)C1C=CC2C(=O)N(Cc3ccccc3)C(=O)C2N1n1cnnc1 (stereo not drawn)
Result: 0.13
